Data origin: ChEMBL document CHEMBL1201862

Tested on: HT-29
Assay: NCI tumour cell line growth inhibition, 48 h
Active and inactive are the calls of the source. Rule as the data show it: active = GI50 up to about 1.1 µM and inactive = higher.
PROPERTY: GI50

INSERT INTO results (compound, observed) VALUES
  ('CC(=O)c1c2c(c3ccccc3c1O)O[C@@H]1OCC[C@H]21', '> 100 µM (inactive)'),
  ('Cc1cc2c3ccccc3n(C)c2c2c1C(=O)C=CC2=O', '9.62 µM (inactive)'),
  ('CC(C)c1c(P(=O)(c2ccccc2)c2ccccc2)n(C)c2ccccc12', '53.8 µM (inactive)'),
  ('CC(=O)OC1(C(C)=O)CC2(c3ccccc3)OC1(c1ccccc1)c1ccccc12 (stereo not given)', '30.1 µM (inactive)'),
  ('CCOC(=O)/C(C#N)=C/c1ccc2c(c1)CC1(C2)Cc2cc(CC)c(C(C)O)cc2C1 (stereo not given)', '19.1 µM (inactive)');

Request the reported GI50 associated with COc1nc2cccc(C(O)c3ccccc3)c2nc1-c1ccccc1 (stereo not given) 5.18 µM (inactive)

Also check O=C(O)C(O)(c1ccc(-c2ccccc2)cc1)c1ccc(-c2ccccc2)cc1 30.2 µM (inactive)

Quick one: C[Si](C)(C)OC1c2[nH]c3ccccc3c2CN2C(=O)CCC12 (stereo not given) > 100 µM (inactive)

Repeat for the following compound: CCN1C(Cl)=NS(=O)(=O)c2ccccc21 18.8 µM (inactive)

What about Nc1ccc2nc(-c3cccc(C(F)(F)F)c3)cc(O)c2c1 ? 34.1 µM (inactive)
